- TARGET_DESC: recombinant PRL-1 (Homo sapiens)
- Construct: 6xHis (N, cleaved yes); made in house; host or cells: E. coli One Shot BL21 Star
- Sequence (Q93096 whole entry): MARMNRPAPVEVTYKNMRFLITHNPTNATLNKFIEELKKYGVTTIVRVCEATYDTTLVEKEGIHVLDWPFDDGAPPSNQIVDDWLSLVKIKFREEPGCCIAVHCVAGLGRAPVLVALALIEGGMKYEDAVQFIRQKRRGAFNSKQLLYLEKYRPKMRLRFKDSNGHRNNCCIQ
- MEASUREMENT_PROTOCOL: In vitro phosphatase assay (DiFMUP hydrolysis), PRL-1; note: test concentration or dose not given here
- Assay type: biochemical
Where a name gives a salt, the structure may show the parent alone.
The entries below are paired with their reported % Phosphatase Activity (compared to DMSO) PRL-1.
QUANTITY_KIND: % Phosphatase Activity (compared to DMSO) PRL-1 (%)

[[record]]
compound = "CSc1ccc2c(c1)N(CCC1CCCCN1C)c1ccccc1S2 (stereo not shown) [Thioridazine HCl]"
measured_value = 95

[[record]]
compound = "NC(N)=Nc1nc(CSCCC(N)=NS(N)(=O)=O)cs1"
measured_value = 110

[[record]]
compound = "Cc1cccc([C@H](C)c2c[nH]cn2)c1C.Cl [Dexmedetomidine HCl (Precedex)]"
measured_value = 111

[[record]]
compound = "Cl.c1ccc(C2CN3CCSC3=N2)cc1 (stereo not shown) [Tetramisole HCl]"
measured_value = 97

[[record]]
compound = "CCCN[C@H]1CCc2nc(N)sc2C1 [Pramipexole]"
measured_value = 109

[[record]]
compound = "O=C(O)c1cccnc1"
measured_value = 95

[[record]]
compound = "O=N[O-].[Na+] [Sodium Nitrite]"
measured_value = 94

[[record]]
compound = "CS(=O)(=O)CCNCc1ccc(-c2ccc3ncnc(Nc4ccc(OCc5cccc(F)c5)c(Cl)c4)c3c2)o1"
measured_value = 207

[[record]]
compound = "CC[C@H](CO)Nc1nc(NCc2ccccc2)c2ncn(C(C)C)c2n1 [Roscovitine (Seliciclib,CYC202)]"
measured_value = 108

[[record]]
compound = "Nc1nc(=O)n([C@@H]2CS[C@H](CO)O2)cc1F"
measured_value = 104

[[record]]
compound = "CCc1cc(C(N)=S)ccn1 [Ethionamide]"
measured_value = 91

[[record]]
compound = "C[C@]12CCC(=O)C(O)=C1CC[C@@H]1[C@@H]2CC[C@]2(C)C(=O)CC[C@@H]12"
measured_value = 102

[[record]]
compound = "CCCSc1ccc2nc(NC(=O)OC)[nH]c2c1"
measured_value = 102

